- assay details: Stability to Phase I metabolism in human S9 liver fraction
- Assay type: in vitro ADME
- particulars: human liver S9 fraction, after 90 min, 37° C.
Parameter residual percentage in human S9 fraction: see the listing below.
Give your result in % as a bare value.

Consider the following illustrative entries.
What value of residual percentage in human S9 fraction has been recorded for this entry: Nc1ccc(-c2nnn(Cc3c(F)cc(C(=O)NO)cc3F)n2)cc1
74

Try this compound next: Cn1c(Sc2c(F)cc(C(=O)NO)cc2F)nnc1-c1ncccc1F
80

Thanks! And Cn1c(Sc2c(F)cc(C(=O)NO)cc2F)nnc1-c1cccnn1 ?
79

Continuing:
Give its residual percentage in human S9 fraction value. Item: O=C(NO)c1cc(F)c(Cn2nnc(-c3ncccn3)n2)c(F)c1
89

Can you handle Cn1c(Sc2ccc(C(=O)NO)cc2)nnc1-c1cccs1 next?
95

Same again, this time with O=C(NO)c1cc(F)c(Cn2nnc(-c3ccco3)n2)c(F)c1
94

Item: Cn1c(Sc2c(F)cc(C(=O)NO)cc2F)nnc1-c1cccc(CN2CCCCCC2)c1
78

Would you kindly repeat that for O=C(NO)c1ccc(Cn2nnnc2-c2cccs2)cc1 ?
100

Entry to check: Cc1cc(-c2nnc(Sc3c(F)cc(C(=O)NO)cc3F)n2C)nn1C
76
